Across several publications, the following IC50 results were reported for PIK3CA (human) (UniProt P42336).

Consider the reported IC50 for these molecules:
{"MOLECULE": "CCN(CC)c1ncc2c(n1)-c1sc(NC(=O)N3C[C@H](O)C[C@H]3C(N)=O)nc1CC2", "TESTED ON": "PIK3CA (human) (UniProt P42336)", "IC50": "4.5 nM"}
{"MOLECULE": "CN(C)c1cccc(-c2ccnc3c2c(/C=C2\\Oc4cc(O)cc(O)c4C2=O)cn3C)c1", "TESTED ON": "PIK3CA (human) (UniProt P42336)", "IC50": "123 nM"}
{"MOLECULE": "CN1CCN(c2cnc3ccc(-c4ccc5oc(N)nc5c4)nc3n2)CC1", "TESTED ON": "PIK3CA (human) (UniProt P42336)", "IC50": "< 1000 nM"}
{"MOLECULE": "Cc1cccc2cc([C@H](C)Nc3ncnc4[nH]cc(C(N)=O)c34)n(C3CC3)c(=O)c12", "TESTED ON": "PIK3CA (human) (UniProt P42336)", "IC50": "< 1000 nM"}

Q: Enter reported IC50 observed with PIK3CA (human) (UniProt P42336) for C[C@H](Nc1ncnc2[nH]cnc12)c1cc2cccc(Cl)c2c(C(=O)N2CCOCC2)n1
Ans: > 10000 nM

Q: Next: Nc1nc2cc(-c3ccc4ncc(N5CCS(=O)(=O)CC5)nc4c3)ccc2o1
Ans: < 100 nM

Q: Param item: Cn1cc(-c2nc(Nc3ccc(C(N)=O)cc3)c3cnn(C)c3n2)cn1
Ans: 603 nM

Q: Same again, this time with CC(C)N1CCN(c2cnc3ccc(-c4ccc5oc(N)nc5c4)cc3n2)CC1
Ans: < 100 nM

====

Multiple publications report IC50 for PIK3CA (human) (UniProt P42336); what follows is a combined list.

Sample records with IC50:
{"LINE NOTATION": "C[C@H](Nc1ccnn2ccnc12)c1cc2scc(Cl)c2c(=O)n1-c1ccccc1", "IC50": "1000 to 10000 nM"}
{"LINE NOTATION": "Nc1ncc(-c2nc(N3CCOCC3)c3nc(-c4cccc(NS(=O)(=O)CCCF)c4F)ccc3n2)cc1F", "IC50": "1 to 100 nM"}

Then there is this molecule:
Q: Query for PIK3CA (human) (UniProt P42336): what IC50 does the record show for c1ccc(-c2nc(N3CCOc4ccc(-c5ccc6nc[nH]c6c5)cc4C3)c3ccccc3n2)cc1 ?
Ans: 1000 to 2000 nM

====

Endpoint summary: IC50, system: PIK3CA (human) (UniProt P42336), multiple sources combined.

Solved entries (count: 3):
{"COMPOUND": "CCn1cnc2cc(-c3ccc4c(c3)CN(c3ccnc5ccccc35)CCO4)ccc21", "IC50": "≥ 2000 nM"}
{"COMPOUND": "C[C@H](Nc1ncnc2[nH]cnc12)c1cc2cccc(Cl)c2c(OCC(=O)O)n1", "IC50": "> 10000 nM"}
{"COMPOUND": "Cn1cc(/C=C2\\Oc3cccc(O)c3C2=O)c2c(N3CCC(C(=O)NCCO)CC3)ccnc21", "IC50": "39 nM"}

Attention now turns to another entry.
Q: Find the recorded IC50 belonging to Nc1ncc(-c2ccc3ncc4nnc(C5CCC(O)CC5)n4c3c2)cc1C(F)(F)F (stereo not shown) and report it.
Ans: < 100 nM

====

Listing of pIC50 toward PIK3CA (human) (UniProt P42336), each taken from a published source.
pIC50: −log10 of the molar value.

Reference set, count: 4
{"COMPOUND": "CC(=O)N1CCN(c2nc3c(N4CCOCC4)nc(-c4cnc(N)nc4)nc3n2CC(C)C)C[C@H]1C", "TESTED ON": "PIK3CA (human) (UniProt P42336)", "pIC50": "7.70 to 8.00"}
{"COMPOUND": "Cn1cc(/C=C2\\Oc3ccc(NC(=O)Nc4cccnc4)cc3C2=O)c2c(N3CCC(C(=O)NCc4cccnc4)CC3)ccnc21", "TESTED ON": "PIK3CA (human) (UniProt P42336)", "pIC50": "< 5.00"}
{"COMPOUND": "Cc1nc2ccc(-c3ccc4c(c3)CN(C(=O)N3CC=C(c5ccccc5)CC3)CCO4)cc2[nH]1", "TESTED ON": "PIK3CA (human) (UniProt P42336)", "pIC50": "6.30 to 6.70"}
{"COMPOUND": "O=C(c1cnc2ccc(-c3ccc4oc(Nc5ccccc5)nc4c3)cn12)N1CCOCC1", "TESTED ON": "PIK3CA (human) (UniProt P42336)", "pIC50": "< 5.00"}

Q: Find pIC50 (PIK3CA (human) (UniProt P42336)) for the entry Nc1noc2cc(-c3ccc4nccc(-c5ccncc5)c4c3)ccc12
Ans: > 7.00

Q: Now give it for Nc1nc2cc(-c3ccc4ncc(N5CC(N6CCOCC6)C5)nc4c3)cc(F)c2o1 too.
Ans: > 7.00

Q: And the next one, COc1cc(-c2nn(Cc3cc4cccc(C)c4c(=O)n3-c3ccccc3F)c3ncnc(N)c23)ccc1Cl ?
Ans: < 5.00

Q: Try Cc1ccccc1-n1c(Cn2nc(C#CC3CC3)c3c(N)ncnc32)cc2nccc(C)c2c1=O next.
Ans: < 5.00

Q: Field entry: CC1CN(C(=O)c2cnc3ccc(-c4ccc5oc(N)nc5c4)cn23)CCO1 (stereo not drawn)
Ans: > 7.00

====

pIC50: −log10 of the molar value.
We begin with pIC50 values for PIK3CA (human), as collected from the published literature.

Examples with their reported pIC50 follow.
{"LINE NOTATION": "CC(=O)Nc1cccc(-c2cccc3cc([C@H](C)NC(=O)c4c(N)nn5cccnc45)n(-c4ccccc4)c(=O)c23)c1", "RESULT": "5.00 to 6.00"}
{"LINE NOTATION": "Nc1ncc(-c2nc(N3CCOCC3)c3nc(N4CCN(C(=O)CO)CC4)n(CC(F)(F)F)c3n2)cn1", "RESULT": "> 8.00"}

Q: Given the compound CC(=O)N[C@H]1CCN([C@H]2CC[C@H](Oc3cc(-n4c(C(F)F)nc5ccccc54)nc(N4CCOCC4)n3)CC2)C1=O , what is its reported pIC50?
Ans: < 5.00

Q: Proceed to Cc1nc(N)ncc1-c1nc(N2CCOCC2)c2nc(N3CCN(S(C)(=O)=O)CC3)n(CC3CC3)c2n1
Ans: > 8.00

====

Literature survey of IC50 (system: PIK3CA (human) (UniProt P42336)).

Use these answered entries as a reference point.
{"COMPOUND": "Nc1nc2ncc(-c3ccc4c(c3)CN(C(=O)N3CCC(=O)CC3c3cccc(F)c3)CCO4)cc2[nH]1 (stereo not shown)", "RESULT": "≤ 75 nM"}
{"COMPOUND": "COCC(C)N(C)[C@H]1CC[C@H](CNc2nc(N3CCOCC3)cc(-n3c(C(F)F)nc4ccccc43)n2)CC1 (stereo partly shown)", "RESULT": "1900 nM"}
{"COMPOUND": "Cc1cc(-c2ccc3ncc4nc(C)n(C5CCC(N6CCOCC6)CC5)c4c3n2)cnc1N (stereo not shown)", "RESULT": "< 100 nM"}
{"COMPOUND": "Cc1cccc2cc([C@H](C)Nc3ncnc4[nH]cnc34)nc(N3CCN(C)CC3)c12", "RESULT": "> 10000 nM"}
{"COMPOUND": "Nc1nc2ncc(-c3ccc4c(c3)CN(C(=O)N3CCC(CCF)CC3)CCO4)cc2[nH]1", "RESULT": "≤ 75 nM"}
{"COMPOUND": "CN1CCN(c2nnc3ccc(-c4ccc5nc(N)oc5c4)cn23)CC1", "RESULT": "> 10000 nM"}
{"COMPOUND": "O=C(CO)N1CCN(Cc2csc3c(-c4cccc5[nH]ncc45)nc(N4CCOCC4)nc23)CC1", "RESULT": "141 nM"}
{"COMPOUND": "Cc1ccccc1-n1c(Cn2nc(-c3cnn(C)c3)c3c(N)ncnc32)cc2cccc(C)c2c1=O", "RESULT": "> 10000 nM"}
{"COMPOUND": "O=c1cc(Oc2ccc(OC(F)(F)F)cc2)c2ccccc2[nH]1", "RESULT": "> 10000 nM"}
{"COMPOUND": "CNC(=O)C(C)Cn1cnc2ccc(-c3cnc(OC)c(NS(=O)(=O)c4c(Cl)cccc4Cl)c3)cc2c1=O (single isomer, unassigned)", "RESULT": "2.49 nM"}

Q: Give the measured IC50 of CNS(=O)(=O)c1cncc(-c2ccc3ncc(C(=O)N4CCOCC4)n3c2)c1 .
Ans: < 10000 nM

Q: Repeat for the following compound: Nc1nc2ccc(-c3cc(F)c4ncc(C(=O)N5CCOCC5)n4c3)cc2o1
Ans: < 10000 nM

Q: Ok, now COc1ccccc1-n1c(Cn2nc(-c3cc(O)cc(F)c3)c3c(N)ncnc32)cc2cccc(C)c2c1=O
Ans: < 10000 nM
